Molecular target: Human complement C1s enzyme (Homo sapiens, UniProt P09871)
Construct: purified from human serum, Complement Technology, Inc
Sequence (P09871 438-688 limits assumed): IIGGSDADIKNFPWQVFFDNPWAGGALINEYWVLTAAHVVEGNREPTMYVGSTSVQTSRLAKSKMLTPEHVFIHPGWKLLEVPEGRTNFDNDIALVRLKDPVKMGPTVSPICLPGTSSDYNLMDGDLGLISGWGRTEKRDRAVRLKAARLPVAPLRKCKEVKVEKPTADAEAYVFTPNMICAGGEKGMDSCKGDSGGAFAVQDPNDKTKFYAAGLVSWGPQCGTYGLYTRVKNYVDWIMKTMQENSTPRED
Sequence (P09871 16-437 partner limits assumed): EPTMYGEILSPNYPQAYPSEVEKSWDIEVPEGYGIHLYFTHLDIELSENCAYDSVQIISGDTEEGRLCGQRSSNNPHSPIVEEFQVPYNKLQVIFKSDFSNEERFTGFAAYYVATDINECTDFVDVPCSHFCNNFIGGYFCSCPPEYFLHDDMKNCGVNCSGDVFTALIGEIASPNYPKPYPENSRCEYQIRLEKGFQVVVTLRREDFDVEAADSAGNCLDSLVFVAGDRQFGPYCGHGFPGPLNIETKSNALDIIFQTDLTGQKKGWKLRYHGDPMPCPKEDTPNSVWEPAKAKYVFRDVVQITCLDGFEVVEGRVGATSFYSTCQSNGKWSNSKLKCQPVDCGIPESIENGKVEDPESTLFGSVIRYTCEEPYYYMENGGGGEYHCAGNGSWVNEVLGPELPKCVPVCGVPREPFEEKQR
Experiment: Human C1s enzyme assay
Conditions: human complement C1s enzyme 1.16 nM, substrate Z-L-Lys-SBzl, A405; read-out: IC50 (Stars)
pIC50: −log10 of the molar value.
Result Type: pIC50

Output pIC50 of O=C(Cn1c(-c2ccccc2)ncc(NC(=O)c2cc3ccc2CCc2ccc(cc2)CC3)c1=O)NCc1cc2cnccc2[nH]1 [Compound 83]
< 6.00

Give the value of pIC50 reported for the following: O=C(Cn1c(N2CCOCC2)ncc(NC(=O)c2csc(-c3ccccc3)n2)c1=O)NCc1cc2cnccc2[nH]1 [Compound 411]
> 7.00

Supply reported pIC50 belonging to this compound: O=C(Cn1c(-c2ccccc2)ncc(NC(=O)CCCc2ccc(Oc3ccccc3)cc2)c1=O)NCc1cc2cnccc2[nH]1 [Compound 18]
> 7.00

Give the reported value of pIC50 for this record: C[C@@H](Nc1cncn(CC(=O)NCc2cc3cnccc3[nH]2)c1=O)c1coc(-c2ccccc2)n1 [Compound 362]
6.00 to 7.00

For the compound O=C(Cn1c(-c2ccc(F)cc2)ncc(NCc2ccc3oc4ccccc4c3c2)c1=O)NCc1cc2cnccc2[nH]1 [Compound 123] , report pIC50.
> 7.00

Given O=C(Cn1c(-c2ccccc2)ncc(NC(=O)Cc2ccccc2)c1=O)NCc1cc2cnccc2[nH]1 [Compound 24] , respond with its pIC50.
> 7.00

Write down pIC50 measured for item Cc1ncc(N[C@H](C)c2ccc3oc4ccccc4c3c2)c(=O)n1C(C)C(=O)NCc1cc2cnccc2[nH]1 (stereo partly shown) [Compound 404]
< 6.00
